pEC50: recorded values
System: phospho-ERK in melanoma derived WM-266-4 cells
Experiment: Mechanistic cellular assay for Raf kinase activity (phospho-ERK, Bio-Plex)
Assay type: cell-based
Settings: Homo sapiens, treated 1-2 hr at 37° C., serum free medium, read-out: pERK EC50
pEC50: −log10 of the molar value.

Before answering, review these 3 worked examples.
>>> endpoint_value("Cc1c(C(=O)NC(C)c2cnc(Nc3ccc(C(F)(F)F)cc3)s2)cnn1C (stereo not drawn) [Example 82]")
"6.00 to 7.00"
>>> endpoint_value("C[C@@H](NC(=O)c1cc2c(cn1)ncn2[C@H]1CCN(C(=O)OC(C)(C)C)C1)c1cnc(Nc2ccc(C(F)(F)F)cc2)s1 [Example 29]")
"≥ 7.00"
>>> endpoint_value("CCn1cnc2cnc(C(=O)NC(C)c3cnc(Nc4ccc(C(F)(F)F)cc4)cn3)cc21 (stereo not drawn) [Example 38]")
"≥ 7.00"

[in] Supply pEC50 value. Item: Cc1nc(C)c(C(=O)N[C@H](C)c2ncc(C(=O)Nc3cc(C(F)(F)F)c(Cl)cn3)s2)s1 [Example 101]
[out] 5.00 to 6.00

[in] Supply pEC50 value. Item: CC(NC(=O)c1cc2c(cn1)ncn2C)c1cnc(Nc2ccc(C3COC3)cc2)cn1 (stereo not drawn) [Example 281]
[out] 5.00 to 6.00

[in] Supply pEC50 value. Item: CC(NC(=O)c1cc2c(cn1)ncn2C)c1cnc(Nc2ccccc2)s1 (stereo not drawn) [Example 247]
[out] 5.00 to 6.00

---

EC50: recorded values
Tested on: phospho-ERK in melanoma derived WM-266-4 cells
Experiment: Mechanistic cellular assay for Raf kinase activity (phospho-ERK, Bio-Plex)
Type: cell-based
Conditions: Homo sapiens, treated 1-2 hr at 37° C., serum free medium, read-out: pERK EC50

Before answering, review these 6 worked examples.
>>> endpoint_value("Cc1ncc(C(=O)NC(C)c2ncc(C(=O)Nc3cc(C(F)(F)F)c(Cl)cn3)s2)n1-c1ccncc1 (stereo not shown)")
"≤ 100 nM"
>>> endpoint_value("C[C@@H](NC(=O)c1cnn(C)c1CNC1CC1)c1ncc(C(=O)Nc2cc(C(F)(F)F)c(Cl)cn2)s1")
"100 to 1000 nM"
>>> endpoint_value("CC(NC(=O)c1cc2c(cn1)ncn2CC(N)=O)c1cnc(Nc2ccc(C(F)(F)F)cc2)s1 (stereo not shown)")
"1000 to 10000 nM"
>>> endpoint_value("C[C@@H](NC(=O)c1cc2c(cn1)ncn2CCS(C)(=O)=O)c1cnc(Nc2ccc(C(F)(F)F)cc2)s1")
"100 to 1000 nM"
>>> endpoint_value("CCn1cc2cc(C(=O)NC(C)c3cnc(Nc4ccc(C(F)(F)F)cc4)s3)ncc2n1 (stereo not shown)")
"100 to 1000 nM"
>>> endpoint_value("C[C@@H](NC(=O)c1cnn2ccccc12)c1ncc(C(=O)Nc2cc(C(F)(F)F)c(Cl)cn2)s1")
"100 to 1000 nM"

[in] Supply EC50 value. Item: CC(NC(=O)c1cc2c(cn1)nc(N)n2C)c1cnc(Nc2ccc(C(F)(F)F)cc2)cn1 (stereo not shown)
[out] ≤ 100 nM

---

System: phospho-ERK in melanoma derived WM-266-4 cells
Assay: Mechanistic cellular assay for Raf kinase activity (phospho-ERK, Bio-Plex)
Format: cell-based
Conditions: Homo sapiens, treated 1-2 hr at 37° C., serum free medium, read-out: pERK EC50
Recorded Metric: EC50

>>> endpoint_value("C[C@@H](NC(=O)c1cnc2n1CCN(C)C2)c1ncc(C(=O)Nc2cc(C(F)(F)F)c(Cl)cn2)s1")
"1000 to 10000 nM"
>>> endpoint_value("CC(NC(=O)c1cnn2c1CCCC2)c1cnc(Nc2ccc(C(F)(F)F)cc2)s1 (stereo not shown)")
"≤ 100 nM"

[in] Quote EC50 with test system phospho-ERK in melanoma derived WM-266-4 cells for CC(NC(=O)c1cc2c(cn1)ncn2CCN1CCOCC1)c1cnc(Nc2ccc(C(F)(F)F)cc2)s1 (stereo not shown)
[out] ≤ 100 nM

[in] Quote EC50 with test system phospho-ERK in melanoma derived WM-266-4 cells for Cc1ncoc1C(=O)N[C@H](C)c1ncc(C(=O)Nc2cc(C(F)(F)F)c(Cl)cn2)s1
[out] 1000 to 10000 nM
